# measurement target: T1, 4H3414-bN
# T1 chain: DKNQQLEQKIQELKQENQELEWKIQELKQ
# assay details: two-hybrid library CCNG1;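 note: natural log of median RNA to DNA barcode read ratio; higher means stronger binding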
Would you mind labelling by interaction score? At or over -0.3 is Condition met, under is Condition not met.

Is the recorded value of interaction score equal to or greater than -0.3 for this binder? DKNQQLEQEIQELKQKIQELEWKNQELEQ [4H3175-bN]
Condition not met

How about DENQQLKQEIQELKQENQELKWKIQELEQ [4H1629-bN] ?
Condition not met

How about DENQQLEQKIQELKQEIQELKWKNQELEQ [4H1359-bN] ?
Condition met

How about DKNQQLEQKIQELKQENQELEWKIQELKQ [4H3414-bN] ?
Condition met

How about DENQQLEQKIQELKQKNQELEWEIQELEQ [4H1393-bN] ?
Condition not met
